- assay-overview: Oral bioavailability in albino Wistar rat at 20 mg/kg measured up to 24 hrs by LC-MS/MS analysis
- Type: ADME, organism-based
- conditions: in vivo
experimental-endpoint: bioavailability

State the recorded bioavailability for this entry: Cc1nc(NC2CCCC2)sc1-c1ccnc(Nc2ccc(N3CCOCC3)cn2)n1
25.1 to 27%

###

- study-system: CDK6/cyclin D3 (Homo sapiens)
- Sequence (P30281 whole entry): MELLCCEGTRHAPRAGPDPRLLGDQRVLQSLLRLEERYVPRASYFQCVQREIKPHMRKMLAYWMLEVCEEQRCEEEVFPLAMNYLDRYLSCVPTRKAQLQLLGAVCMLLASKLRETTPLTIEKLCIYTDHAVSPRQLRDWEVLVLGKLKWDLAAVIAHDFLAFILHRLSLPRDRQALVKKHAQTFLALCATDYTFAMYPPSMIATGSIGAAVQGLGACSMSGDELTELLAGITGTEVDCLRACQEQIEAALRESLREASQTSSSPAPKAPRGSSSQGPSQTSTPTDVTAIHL
- Sequence (Q00534 whole entry): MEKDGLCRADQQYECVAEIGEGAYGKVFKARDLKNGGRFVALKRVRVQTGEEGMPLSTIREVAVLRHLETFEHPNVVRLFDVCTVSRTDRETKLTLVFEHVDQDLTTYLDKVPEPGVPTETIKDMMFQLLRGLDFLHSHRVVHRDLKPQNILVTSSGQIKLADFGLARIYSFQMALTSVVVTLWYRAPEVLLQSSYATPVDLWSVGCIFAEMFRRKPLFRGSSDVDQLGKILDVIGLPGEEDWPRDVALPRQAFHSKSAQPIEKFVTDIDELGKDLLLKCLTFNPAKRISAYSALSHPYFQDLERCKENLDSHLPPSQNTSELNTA
- assay-overview: Inhibition of CDK6/cyclin D3 (unknown origin) in presence of [gamma-33P]-ATP […]
- conditions: read-out: Ki(app)
experimental-endpoint: Ki (nM)
Answers are plain numbers, in nM.

Hi there! I need Ki for each item below, if you can.
1. Cc1nc(NC2CCCC2)sc1-c1ccnc(Nc2ccc(N3CCOCC3)cn2)n1
2. Cc1nc(NC2CCCC2)sc1-c1nc(Nc2ccc(N3CCN(C)CC3)cn2)ncc1F
3. Cc1nc(NC2CCCC2)sc1-c1ccnc(Nc2ccc(N3CCN(S(C)(=O)=O)CC3)cn2)n1
4. Cc1nc(N(C2CCCC2)C2CCCC2)sc1-c1ccnc(Nc2ccc(N3CCNCC3)cn2)n1

1. 30
2. 3
3. 55
4. 539

###

- study-system: Cytochrome P450 2C9 (Homo sapiens, UniProt P11712)
- Sequence (P11712 whole entry): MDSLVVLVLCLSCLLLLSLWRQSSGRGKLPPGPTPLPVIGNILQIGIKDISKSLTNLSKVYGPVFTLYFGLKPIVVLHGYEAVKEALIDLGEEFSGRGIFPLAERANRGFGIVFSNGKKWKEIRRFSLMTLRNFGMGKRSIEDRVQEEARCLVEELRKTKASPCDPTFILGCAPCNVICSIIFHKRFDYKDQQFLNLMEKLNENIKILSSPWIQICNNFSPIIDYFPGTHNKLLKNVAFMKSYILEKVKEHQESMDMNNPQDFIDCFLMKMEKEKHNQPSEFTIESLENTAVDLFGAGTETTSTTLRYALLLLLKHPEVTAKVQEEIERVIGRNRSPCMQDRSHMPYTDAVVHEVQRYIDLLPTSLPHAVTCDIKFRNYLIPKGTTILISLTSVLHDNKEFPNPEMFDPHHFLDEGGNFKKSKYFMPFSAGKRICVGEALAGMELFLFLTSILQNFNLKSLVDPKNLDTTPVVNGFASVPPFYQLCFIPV
- assay-overview: Inhibition of CYP2C9 in human liver microsomes using tolbutamide as substrate in presence of NADPH
- Format: ADME
experimental-endpoint: IC50

State the recorded IC50 for this entry: Cc1nc(NC2CCCC2)sc1-c1ccnc(Nc2ccc(N3CCOCC3)cn2)n1
> 25 µM

###

- assay-overview: Tmax in BALB/c mouse at 10 mg/kg administered via oral gavage measured up to 24 hrs by LC-MS/MS analysis
- Format: ADME, organism-based
- conditions: in vivo
experimental-endpoint: Tmax (h)
One number for each entry, in h.

State the recorded Tmax for this entry: Cc1nc(NC2CCCC2)sc1-c1ccnc(Nc2ccc(N3CCOCC3)cn2)n1
2

###

- assay-overview: Volume of distribution at steady state in albino Wistar rat at 5 mg/kg, iv up to 24 hrs by LC-MS/MS analysis
- Assay type: ADME, organism-based
- conditions: in vivo, read-out: Vdss
experimental-endpoint: Vd (L/kg)
Numbers only, in L/kg.

State the recorded Vd for this entry: Cc1nc(NC2CCCC2)sc1-c1ccnc(Nc2ccc(N3CCOCC3)cn2)n1
1.5

###

- assay-overview: Oral bioavailability in BALB/c mouse at 10 mg/kg measured up to 24 hrs by LC-MS/MS analysis
- Type: ADME, organism-based
- conditions: in vivo
experimental-endpoint: bioavailability (%)
Give bare numbers, in %.

State the recorded bioavailability for this entry: Cc1nc(NC2CCCC2)sc1-c1ccnc(Nc2ccc(N3CCOCC3)cn2)n1
100

###

- study-system: CDK9/cyclin T1 (Homo sapiens, UniProt P50750)
- Sequence (O60563 whole entry): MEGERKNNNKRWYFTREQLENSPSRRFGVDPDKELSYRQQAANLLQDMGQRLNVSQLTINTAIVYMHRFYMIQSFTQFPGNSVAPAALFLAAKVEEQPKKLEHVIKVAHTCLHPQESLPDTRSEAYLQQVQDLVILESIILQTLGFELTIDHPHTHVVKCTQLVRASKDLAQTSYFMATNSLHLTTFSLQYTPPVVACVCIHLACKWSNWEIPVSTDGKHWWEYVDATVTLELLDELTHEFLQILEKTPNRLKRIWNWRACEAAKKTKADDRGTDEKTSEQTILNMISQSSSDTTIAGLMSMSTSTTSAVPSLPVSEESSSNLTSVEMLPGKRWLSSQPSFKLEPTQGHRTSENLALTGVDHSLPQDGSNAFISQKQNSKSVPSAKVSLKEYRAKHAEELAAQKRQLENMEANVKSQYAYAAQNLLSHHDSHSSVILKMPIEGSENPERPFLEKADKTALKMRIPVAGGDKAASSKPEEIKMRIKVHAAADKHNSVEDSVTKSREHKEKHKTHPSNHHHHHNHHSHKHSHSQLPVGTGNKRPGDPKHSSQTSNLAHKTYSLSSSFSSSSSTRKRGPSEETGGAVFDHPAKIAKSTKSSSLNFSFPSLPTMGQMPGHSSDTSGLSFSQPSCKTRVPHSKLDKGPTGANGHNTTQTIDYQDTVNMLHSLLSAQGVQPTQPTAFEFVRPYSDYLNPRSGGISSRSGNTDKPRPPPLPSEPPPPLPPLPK
- Sequence (P50750 whole entry): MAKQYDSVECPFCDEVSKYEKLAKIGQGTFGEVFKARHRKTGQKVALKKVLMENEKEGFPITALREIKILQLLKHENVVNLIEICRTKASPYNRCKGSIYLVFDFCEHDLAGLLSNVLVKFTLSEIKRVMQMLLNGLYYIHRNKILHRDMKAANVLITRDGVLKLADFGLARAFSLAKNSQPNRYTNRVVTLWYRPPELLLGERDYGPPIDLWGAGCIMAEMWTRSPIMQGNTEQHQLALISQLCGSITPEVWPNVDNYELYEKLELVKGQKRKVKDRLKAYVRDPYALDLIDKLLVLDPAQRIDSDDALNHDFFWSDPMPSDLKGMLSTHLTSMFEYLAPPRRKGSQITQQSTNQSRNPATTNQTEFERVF
- assay-overview: Inhibition of CDK9/cyclin T1 (unknown origin) in presence of [gamma-33P]-ATP […]
- conditions: read-out: Ki(app)
I'd be grateful if you could share measured Ki for these entries.

Answered examples (2):
1. Cc1nc(NC(C)C)sc1-c1ccnc(Nc2ccc(N3CCOCC3)cn2)n1: > 5 µM
2. CCN1CCN(c2ccc(Nc3ncc(F)c(-c4sc(NC5CCCC5)nc4C)n3)nc2)CC1: > 5 µM

Hi there! I need Ki for each item below, if you can.
1. Cc1nc(NC2CCCC2)sc1-c1ccnc(Nc2ccc(N3CCN(S(C)(=O)=O)CC3)cn2)n1
2. Cc1nc(NC2CCCC2)sc1-c1nc(Nc2ccc(N3CCN(C)CC3)cn2)ncc1F
3. FC(F)(F)c1nc(NC2CCCC2)sc1-c1ccnc(Nc2ccc(N3CCOCC3)cn2)n1
4. Cc1nc(NC2CCCC2)sc1-c1ccnc(Nc2ccc(N3CCOCC3)cn2)n1

1.32 µM
0.505 µM
> 5 µM
> 5 µM

Hi there! I need Ki for each item below, if you can.
1. Cc1nc(NC2CCCC2)sc1-c1nc(Nc2ccc(N3CCN(S(C)(=O)=O)CC3)cn2)ncc1F
2. Cc1nc(Nc2ccccc2)sc1-c1ccnc(Nc2ccc(N3CCN(C)CC3)cn2)n1
3. Cc1nc(NC2CCCC2)sc1-c1nc(Nc2ccc(N3CCOCC3)cn2)ncc1F

["> 5 µM", "> 5 µM", "> 5 µM"]
